Target: T1, monkey GFRα3 expressed with a C-terminal myc-myc-hexahistidine tag (monkey (Mf), UniProt O60609 32-374 (human entry), limits assumed)
T1 construct: also called MfGFRα3-mmh; MfGFRα3-mmH
T1 chain: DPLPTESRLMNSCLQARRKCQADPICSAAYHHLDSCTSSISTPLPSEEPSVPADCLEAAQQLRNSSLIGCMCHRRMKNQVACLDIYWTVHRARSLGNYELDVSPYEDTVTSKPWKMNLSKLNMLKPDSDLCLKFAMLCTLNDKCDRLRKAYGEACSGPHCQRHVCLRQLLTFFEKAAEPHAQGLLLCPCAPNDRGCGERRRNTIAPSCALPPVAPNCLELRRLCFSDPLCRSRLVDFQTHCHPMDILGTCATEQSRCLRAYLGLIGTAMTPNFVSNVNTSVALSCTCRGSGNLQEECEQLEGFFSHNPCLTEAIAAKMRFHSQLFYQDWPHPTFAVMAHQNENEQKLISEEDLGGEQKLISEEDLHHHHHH
Experimental Details: SPR, Ab captured, 37C
Field: kon. Provide a value for each of the binders that follow.
API: value field is a number in M⁻¹ s⁻¹; no unit string.

The binder identified as H4H2291S (antibody, human IgG4, V domains shown, human IgG4 Fc (H4H)) VH: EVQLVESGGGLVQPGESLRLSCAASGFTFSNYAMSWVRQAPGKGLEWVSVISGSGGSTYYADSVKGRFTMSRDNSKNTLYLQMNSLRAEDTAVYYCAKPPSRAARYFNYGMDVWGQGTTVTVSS VL: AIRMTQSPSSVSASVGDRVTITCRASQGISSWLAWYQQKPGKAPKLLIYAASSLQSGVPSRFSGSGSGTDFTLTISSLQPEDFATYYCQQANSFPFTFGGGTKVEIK registered its kon at 357000

The binder identified as H4H2352S (antibody, human IgG4, V domains shown, human IgG4 Fc (H4H); also called H4H2352S-1) VH: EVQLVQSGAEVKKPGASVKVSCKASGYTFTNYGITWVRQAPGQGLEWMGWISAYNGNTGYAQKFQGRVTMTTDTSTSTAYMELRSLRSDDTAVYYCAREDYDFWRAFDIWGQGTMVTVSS VL: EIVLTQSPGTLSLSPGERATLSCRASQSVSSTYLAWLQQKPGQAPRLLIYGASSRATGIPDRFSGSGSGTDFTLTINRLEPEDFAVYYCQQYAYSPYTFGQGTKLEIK registered its kon at 557000

The binder identified as H4H2293P (antibody, human IgG4, V domains shown, human IgG4 Fc (H4H)) VH: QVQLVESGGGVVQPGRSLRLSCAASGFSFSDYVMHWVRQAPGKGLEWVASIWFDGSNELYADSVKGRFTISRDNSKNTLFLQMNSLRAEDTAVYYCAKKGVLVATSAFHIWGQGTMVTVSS VL: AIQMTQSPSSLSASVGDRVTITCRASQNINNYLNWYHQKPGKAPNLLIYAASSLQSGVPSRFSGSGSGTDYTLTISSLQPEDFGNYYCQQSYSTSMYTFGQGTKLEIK registered its kon at 441000

The binder identified as H4H2345S (antibody, human IgG4, V domains shown, human IgG4 Fc (H4H)) VH: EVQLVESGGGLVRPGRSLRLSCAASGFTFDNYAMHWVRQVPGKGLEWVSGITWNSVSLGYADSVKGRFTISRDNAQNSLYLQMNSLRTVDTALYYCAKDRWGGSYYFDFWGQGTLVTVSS VL: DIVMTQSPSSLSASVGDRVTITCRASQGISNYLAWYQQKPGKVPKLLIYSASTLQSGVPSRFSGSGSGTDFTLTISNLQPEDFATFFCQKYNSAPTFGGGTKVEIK registered its kon at 134000
